Measured IC50, listed per entry.
- Target Of Assay: hPD-1/hPD-L1 (Homo sapiens)
- Sequence (Q9NZQ7 19-238 limits assumed): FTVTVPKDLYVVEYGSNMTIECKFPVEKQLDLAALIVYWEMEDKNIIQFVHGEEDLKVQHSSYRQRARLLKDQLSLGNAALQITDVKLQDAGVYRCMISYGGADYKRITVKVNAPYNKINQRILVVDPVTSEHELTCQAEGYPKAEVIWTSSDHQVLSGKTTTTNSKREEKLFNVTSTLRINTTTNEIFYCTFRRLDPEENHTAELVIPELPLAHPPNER
- Assay: PD-1/PD-L1 binding assay kit (CISBIO), HTRF assay of PD-1/PD-L1 protein-protein interaction
Please give a number only; it is taken to be in nM.

cpd_smiles=Cc1ccccc1-c1cccc(COc2ccc3c(n2)CCN(CCO)C3)c1Cl endpoint_unit=nM result_value=20.1
cpd_smiles=Cc1c(COc2ccc3c(n2)CCN(CCO)C3)cccc1-c1ccccc1F endpoint_unit=nM result_value=15.8
cpd_smiles=Cc1c(-c2ccc3c(c2)CN(CCO)C3)cccc1-c1ccccc1F endpoint_unit=nM result_value=11
cpd_smiles=Cc1c(COc2ccc3c(n2)CCN(CC(=O)O)C3)cccc1-c1ccccc1F endpoint_unit=nM result_value=23
cpd_smiles=OCCN1CCc2nc(OCc3cccc(-c4ccccc4F)c3F)ccc2C1 endpoint_unit=nM result_value=10.5
cpd_smiles=OCCN1CCc2nc(OCc3cccc(-c4ccccc4F)c3Cl)ccc2C1 endpoint_unit=nM result_value=16.3
cpd_smiles=O=CCN1CCc2nc(OCc3cccc(-c4ccccc4F)c3Cl)ccc2C1 endpoint_unit=nM result_value=24.2
cpd_smiles=O=C(O)CN1CCc2nc(OCc3cccc(-c4ccccc4F)c3)ccc2C1 endpoint_unit=nM result_value=13.4
cpd_smiles=Cc1c(COc2ccc3c(n2)N(C)CN(CC(=O)O)C3)cccc1-c1cccc(OCCCN2CC[C@@H](O)C2)c1C endpoint_unit=nM result_value=58.5
cpd_smiles=Cc1c(-c2ccc3c(n2)CCN(CC(=O)O)C3)cccc1-c1ccccc1F endpoint_unit=nM result_value=19

Task item: Any idea what its IC50 is? The compound is `Fc1ccccc1-c1cccc(COc2ccc3c(n2)CCNC3)c1Cl`
Reply: 10.1

Task item: // next record `OCCN1CCc2nc(OCc3cccc(-c4ccccc4)c3Cl)ccc2C1`
Reply: 31.1
